I'd be grateful if you could share measured TGI for these entries.
- Test system: OVCAR-3 ovarian
- ASSAY PROCEDURE: NCI tumour cell line growth inhibition, 48 h
Number in µM, nothing else.

Can you share its TGI? I mean this compound: O=C(OC[C@@H]1CO1)c1cccc2c(=O)c3ccccc3[nH]c12
1.14

Next compound: Clc1ccc2c(NCCCN3CCN(c4nc(N5CCOCC5)nc5ccccc45)CC3)ccnc2c1
4.77

====

Provide the reported TGI of each item.
- Test system: OVCAR-8 ovarian
- ASSAY PROCEDURE: NCI tumour cell line growth inhibition, 48 h
Where a SMILES comes first, the peptide text is derived from it. The star is where a group is joined. Cbz = O=C(OCc1ccccc1)*; Boc = CC(C)(C)OC(=O)*; OSu = O=C1CCC(=O)N1O*; Bn = c1ccc(C*)cc1

Request: TGI, test system OVCAR-8 ovarian, entry C#Cc1cccc(NC(=O)C2CCCN(C(=O)CCl)C2)c1 (stereo unspecified)
> 82.5 µM

Also CC(=O)NN(c1ccccc1)C1CCN(c2ccccc2)N1C(C)=O (stereo unspecified) ?
> 10 µM

What would you report for OCC(O)C(O)C(O)C(O)c1nn[nH]n1 (stereo unspecified) ?
> 100 µM

Next compound up: COCC1N=C(c2cc(OC)c(OC)c(OC)c2-c2cc3c(cc2[C@H](C)O)OCO3)O[C@H]1c1ccccc1 (stereo partly specified)
> 100 µM

Another: CCOc1ccc(Nc2nc(-c3c(C)nc4ncccn34)cs2)cc1
15.9 µM

// repeat for COc1cccc(CCCNC(=O)Cc2ccccc2CO)c1 and report
> 100 µM

Repeat for the following compound: O=c1nc2[nH]c3c(-c4n[nH]c(=O)[nH]c4=O)cccc3c2n[nH]1
> 100 µM

Try NC(N)=NCCCC(NC(=O)c1c2ccccc2nc2ccccc12)C(=O)O (stereo unspecified) next.
> 100 µM

// query: CC[C@@]12CCC(=S)N(CCSc3ccccc3)[C@@H]1c1c(n(S(=O)(=O)c3ccc(OC)cc3)c3ccccc13)CC2
> 100 µM

What about C[n+]1c2ccccc2c(C(=O)Nc2ccc(S(=O)(=O)Nc3ncccn3)cc2)c2ccccc21 ?
> 100 µM

What about this compound? CCCCCCCCCCCCC1N=C(N)N2CCCC2=C1C(=O)OC (stereo unspecified)
3.37 µM

Let us now turn to CC(C)=CCc1c2c(c(O)c3c(=O)c4c(oc13)-c1ccc(O)cc1OC4C=C(C)C)C=CC(C)(C)O2 (stereo unspecified)
28.8 µM

Continue with O=c1c2cc(I)ccc2nc(-c2cccs2)n1O
> 100 µM

# iterate: O=C(NCc1ccccc1Cl)c1c(O)c2ccccc2[nH]c1=O
> 100 µM

What do you have for Cc1ccc2nc(C(=O)O)c(=O)[nH]c2c1 ?
> 100 µM

Entry to check: O=C(O)Cn1ccc(=O)c2cc([N+](=O)[O-])ccc21
> 100 µM

And what about the compound Cc1nc(Cc2n[nH]c(C)n2)n[nH]1 ?
> 100 µM

Same thing, different compound: Clc1ccc(C2=NCON=C2c2ccc(Cl)cc2)cc1
88.7 µM

# iterate: C[n+]1c(-c2ccc(/C=N/NC(=O)C(=O)N/N=C/c3ccc(-c4cn5ccccc5[n+]4C)cc3)cc2)cn2ccccc21
> 100 µM

Now consider CC(C)=CCC/C(C)=C/C=C/C(C)=C/C1C[C@@]2(C(O)O1)[C@H](CCCO)/C(=C(/C)C=O)CC[C@]2(C)O (stereo partly specified) and answer again.
51 µM

Let us now turn to N/C(=N\C(N)=N\c1nc2ccccc2s1)c1cnccn1
26.5 µM

Request: Cc1cc(=O)n2nc(CSc3nnc(Sc4cc(O)ccc4O)s3)sc2n1
> 100 µM

// repeat for COc1ccc(/C(CC2OC(=O)c3ccccc32)=N\NC(N)=O)cc1 (stereo unspecified) and report
> 100 µM

Also, N#CCCN(CCC#N)c1ccc(C=Nc2ccc(F)cc2)cc1 please.
> 100 µM

Also check c1ccc(Nc2nnc(CCCCCCCCc3nnc(Nc4ccccc4)o3)o2)cc1
> 100 µM

What about this compound? OCC#Cc1ccccc1C#Cc1ccc(C#Cc2ccccc2)cc1
57 µM

Consider next the compound CC(C)(C)OC(=O)NC(Cc1ccc(OCc2ccccc2)cc1)C(=O)NC(CCCCNC(=O)OCc1ccccc1)C(=O)NC(CCCCNC(=O)OCc1ccccc1)C(=O)ON1C(=O)CCC1=O (stereo unspecified) (Boc-Tyr(Bn)-Lys(Cbz)-Lys(Cbz)-OSu; configuration not given here) in the same way.
94.8 µM

Also check NC(=O)c1ncn(C2OC(CO)C(O)C2O)c1N (stereo unspecified)
> 100 µM

And the next one, N#CC(NC(=O)CCl)=C(Cl)Cl ?
6.08 µM

Subsequent entry: CC1=CCN(c2ccccn2)OC1c1ccccc1 (stereo unspecified)
> 100 µM

Also check COc1ccc(N=Nc2c(N)nn3c(SC)c(C#N)c(N)nc23)cc1
11.7 µM
